Please respond with reported inhibition for every item in the list.
target: Hexose transporter 1 (Plasmodium falciparum); assay: ST_JUDE_LEISH: Cytotoxicity at 2uM final concentration against transgenic Leishmania Mexicana promastigotes LmPfHT that are glucose transport deficient and complemented with the Plasmodium falciparum hexose transporter. Activity is measured by DNA content using SYBR green in vitro; assay type: functional
One number for each entry, in %.

1) O=C(Nc1cccc(CN2CCCN(Cc3ccsc3)CC2)c1)c1ccc(Cl)c(Cl)c1	2.57
2) CN1CCN(Cc2cccc(-c3ccc4c(Nc5ccc(Oc6ccccc6)cc5)ccnc4c3)c2)CC1	17
3) COc1ccc(-c2cnc(N)nc2N)cc1Cl	1.5

Below: the item to evaluate.
Hey, Hexose transporter 1 (Plasmodium falciparum) data for Cc1nc(C)c(CC(=O)Nc2ccc(-c3cccc(-c4nc5cc(C(F)(F)F)ccc5[nH]4)c3)cc2)s1 : inhibition came out at 10.6
